src = patent US12448375B2

The following compounds each carry a recorded IC50 for p38a (Homo sapiens, UniProt Q16539).

| smiles-structure | reported-measurement |
| --- | --- |
| Cc1nc2c(cnn2-c2csc(C(=O)NC3(C)COC3)c2)cc1Nc1ccccc1Cl | > 1000 nM |
| COCC(COC)NC(=O)c1cc(-n2ncc3nc(Oc4ccccc4Cl)ccc32)cs1 | > 1000 nM |
| CNC(=O)c1cc(-n2ncc3cc(Nc4ccccc4Cl)cnc32)c(C)s1 | < 200 nM |
| O=C(NCC(F)F)c1cc(-n2ncc3cc(Nc4ccccc4Cl)c(F)cc32)cs1 | < 200 nM |

Now turn to the next compound.
Problem: Item CC(C)NC(=O)c1cc(-n2ncc3cc(Nc4ccccc4Cl)c(F)cc32)cs1 has what recorded IC50?
Result: < 200 nM

###

Recorded IC50 by entry
# target-under-test: DDR1 (Homo sapiens, UniProt Q08345)
# Sequence (Q08345 19-913): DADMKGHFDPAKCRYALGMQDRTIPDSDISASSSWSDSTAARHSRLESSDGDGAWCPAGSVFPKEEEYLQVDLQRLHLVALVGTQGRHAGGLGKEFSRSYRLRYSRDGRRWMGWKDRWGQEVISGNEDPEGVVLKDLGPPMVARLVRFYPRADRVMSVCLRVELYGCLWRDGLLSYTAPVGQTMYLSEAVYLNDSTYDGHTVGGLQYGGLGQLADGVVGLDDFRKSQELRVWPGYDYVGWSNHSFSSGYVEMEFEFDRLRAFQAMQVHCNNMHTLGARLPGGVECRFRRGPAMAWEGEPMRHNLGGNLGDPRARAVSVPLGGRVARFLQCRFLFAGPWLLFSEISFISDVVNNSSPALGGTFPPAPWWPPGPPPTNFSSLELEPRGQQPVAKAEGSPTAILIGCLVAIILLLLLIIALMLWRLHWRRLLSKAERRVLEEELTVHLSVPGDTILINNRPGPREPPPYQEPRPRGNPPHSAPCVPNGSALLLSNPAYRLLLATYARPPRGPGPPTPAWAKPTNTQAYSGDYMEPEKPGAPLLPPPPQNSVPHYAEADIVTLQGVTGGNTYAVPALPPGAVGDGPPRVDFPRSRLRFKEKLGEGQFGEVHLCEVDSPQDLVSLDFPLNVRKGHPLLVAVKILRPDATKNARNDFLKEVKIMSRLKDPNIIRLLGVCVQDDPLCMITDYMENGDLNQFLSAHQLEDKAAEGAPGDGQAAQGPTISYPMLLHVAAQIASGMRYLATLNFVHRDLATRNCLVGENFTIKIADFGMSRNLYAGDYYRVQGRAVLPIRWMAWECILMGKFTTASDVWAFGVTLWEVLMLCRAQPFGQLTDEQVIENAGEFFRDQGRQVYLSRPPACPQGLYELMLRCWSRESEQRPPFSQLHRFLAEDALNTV

| smiles-structure | reported-measurement |
| --- | --- |
| CNC(=O)c1cc(-n2ncc3cc(Nc4c(F)cccc4OC)ccc32)cs1 | 200 to 1000 nM |

Consider now this further compound.
Problem: For the compound shown here, COc1cccc(Cl)c1Nc1cc2cnn(-c3csc(C(=O)NC4COC4)c3)c2nc1C , give the reported IC50.
Result: > 1000 nM

###

# target-under-test: JNK3 (Homo sapiens, UniProt P53779)
# Sequence (P53779 whole entry): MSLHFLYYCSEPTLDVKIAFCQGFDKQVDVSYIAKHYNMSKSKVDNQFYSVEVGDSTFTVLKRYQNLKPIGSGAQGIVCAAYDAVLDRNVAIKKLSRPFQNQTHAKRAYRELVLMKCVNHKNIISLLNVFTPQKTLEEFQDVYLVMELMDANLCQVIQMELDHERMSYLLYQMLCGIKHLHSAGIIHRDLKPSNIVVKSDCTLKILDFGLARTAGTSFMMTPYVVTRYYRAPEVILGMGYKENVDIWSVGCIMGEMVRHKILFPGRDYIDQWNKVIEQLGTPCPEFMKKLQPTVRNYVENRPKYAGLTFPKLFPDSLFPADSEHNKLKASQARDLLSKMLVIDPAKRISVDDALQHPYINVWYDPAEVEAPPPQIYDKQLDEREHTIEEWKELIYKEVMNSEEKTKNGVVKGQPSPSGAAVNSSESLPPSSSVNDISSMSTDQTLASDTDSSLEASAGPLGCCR
test-readout: IC50

Would you please look over these solved cases?
| smiles-structure | target-under-test | IC50 |
| --- | --- | --- |
| O=C(NC1CNC1)c1cc(-n2ncc3nc(Nc4ccccc4Cl)ncc32)cs1 | JNK3 (Homo sapiens, UniProt P53779) | > 1 µM |
| CC(=O)N1CC(NC(=O)c2cc(-n3ncc4cc(Nc5ccccc5Cl)cnc43)cs2)C1 | JNK3 (Homo sapiens, UniProt P53779) | < 0.2 µM |
| COCCNC(=O)c1cc(-n2ncc3nc(Nc4ccccc4Cl)ccc32)cs1 | JNK3 (Homo sapiens, UniProt P53779) | < 0.2 µM |
| CNC(=O)c1cc(-n2ncc3cc(Nc4c(F)cccc4OC)ccc32)cs1 | JNK3 (Homo sapiens, UniProt P53779) | < 0.2 µM |
| CNC(=O)c1cc(-n2ncc3cc(Nc4cccc(OC)c4Cl)c(C)nc32)cs1 | JNK3 (Homo sapiens, UniProt P53779) | < 0.2 µM |
| O=C(NC1CCOCC1)c1cc(-n2ncc3cc(Nc4ccccc4Cl)c(F)cc32)cs1 | JNK3 (Homo sapiens, UniProt P53779) | < 0.2 µM |

Problem: Reported IC50 for JNK3 (Homo sapiens, UniProt P53779), given O=C(NC(CO)CO)c1cc(-n2ncc3nc(Nc4ccccc4Cl)ccc32)cs1 ?
Result: < 0.2 µM

Problem: Notebook: pull reported IC50 for JNK3 (Homo sapiens, UniProt P53779), entry CC(C)NC(=O)c1cc(-n2ncc3cc(Nc4ccccc4Cl)c(F)cc32)cs1
Result: < 0.2 µM

###

What follows is a collection of IC50 values obtained with UniProt P45983.

Previously resolved entries follow.
| smiles-structure | reported-measurement |
| --- | --- |
| CNC(=O)c1cc(-n2ncc3nc(Nc4ccccc4Cl)ccc32)cs1 | > 1 µM |
| CC(C)NC(=O)c1cc(-n2ncc3nc(Oc4ccccc4Cl)ncc32)cs1 | > 1 µM |
| CNC(=O)c1cc(-n2ncc3cc(Nc4cccc(OC)c4Cl)c(C)nc32)cs1 | 0.2 to 1 µM |
| CNC(=O)c1cc(-n2ncc3cc(Nc4ccccc4Cl)c(C)nc32)cs1 | 0.2 to 1 µM |
| CNC(=O)c1cc(-n2ncc3cc(Nc4ccccc4Cl)c(F)cc32)cs1 | 0.2 to 1 µM |
| COc1cc2c(cnn2-c2csc(C(=O)NC3COC3)c2)cc1Nc1ccccc1Cl | > 1 µM |
| CNC(=O)c1cc(-n2ncc3cc(Nc4c(F)cccc4Cl)c(F)cc32)cs1 | > 1 µM |
| [2H]C([2H])([2H])N1CC[C@H](NC(=O)c2cc(-n3ncc4cc(Oc5ccccc5Cl)ccc43)cs2)C1 | > 1 µM |
| O=C(NC1COC1)c1cc(-n2ncc3cc(Oc4ccccc4Cl)ccc32)cs1 | > 1 µM |
| CC(=O)N1CC[C@H](NC(=O)c2cc(-n3ncc4cc(Nc5ccccc5Cl)c(F)cc43)cs2)C1 | 0.2 to 1 µM |

Problem: For the record O=C(NC1CCOCC1)c1cc(-n2ncc3cc(Nc4ccccc4Cl)c(F)cc32)cs1 , what value of IC50 is listed for UniProt P45983?
Result: < 0.2 µM

Problem: Item: CNC(=O)c1cc(-n2ncc3cc(Nc4c(F)cccc4OC)ccc32)cs1 Test system: UniProt P45983 Read-out: IC50 Value: ?
Result: > 1 µM

###

As a worked illustration, we turn to pIC50 data collected for Abl-1 (Homo sapiens, UniProt P00519).
pIC50: −log10 of the molar value.

| molecule | pIC50 |
| --- | --- |
| CN1CCN=C1NC(=O)c1cc(-n2ncc3nc(Nc4ccccc4Cl)ccc32)cs1 [Compound 58] | < 6.00 |

Now examine the next entry.
Problem: Can you share its pIC50? I mean this molecule: CNC(=O)c1cc(-n2ncc3cc(Nc4c(Cl)cccc4OC)ncc32)cs1 [Compound 108]
Result: < 6.00

###

In what follows, each item is paired with its IC50 for p38a (Homo sapiens, UniProt Q16539).

Worked examples, 3 compounds total:
| smiles-structure | IC50 |
| --- | --- |
| COCCNC(=O)c1cc(-n2ncc3cc(Nc4ccccc4Cl)ncc32)cs1 | < 0.2 µM |
| CNC(=O)c1cc(-n2ncc3cc(Nc4ccccc4OC)c(F)cc32)cs1 | 0.2 to 1 µM |
| COc1cccc(Cl)c1Nc1cc2cnn(-c3csc(C(=O)NC4COC4)c3)c2nc1C | 0.2 to 1 µM |

Could you now look at the following compound, please?
Problem: Param item = CNC(=O)c1cc(-n2ncc3cc(Nc4c(Cl)cccc4OC)cnc32)cs1 ; retrieve measured IC50.
Result: 0.2 to 1 µM

###

pIC50: −log10 of the molar value.
These records show pIC50 for JNK1 (Homo sapiens, UniProt P45983).

| smiles-structure | test-readout | reported-measurement |
| --- | --- | --- |
| COCCNC(=O)c1cc(-n2ncc3cc(Oc4ccccc4Cl)ncc32)cs1 | pIC50 | < 6.00 |
| CNC(=O)c1cc(-n2ncc3nc(Oc4ccccc4Cl)ccc32)cs1 | pIC50 | < 6.00 |
| [2H]C([2H])([2H])N1CC[C@@H](NC(=O)c2cc(-n3ncc4cc(Oc5ccccc5Cl)ccc43)cs2)C1 | pIC50 | < 6.00 |

Could you now consider this next molecule?
Problem: Query pIC50 on JNK1 (Homo sapiens, UniProt P45983) for O=C(NCC(F)F)c1cc(-n2ncc3cc(Nc4ccccc4Cl)c(F)cc32)cs1
Sequence (P45983 whole entry): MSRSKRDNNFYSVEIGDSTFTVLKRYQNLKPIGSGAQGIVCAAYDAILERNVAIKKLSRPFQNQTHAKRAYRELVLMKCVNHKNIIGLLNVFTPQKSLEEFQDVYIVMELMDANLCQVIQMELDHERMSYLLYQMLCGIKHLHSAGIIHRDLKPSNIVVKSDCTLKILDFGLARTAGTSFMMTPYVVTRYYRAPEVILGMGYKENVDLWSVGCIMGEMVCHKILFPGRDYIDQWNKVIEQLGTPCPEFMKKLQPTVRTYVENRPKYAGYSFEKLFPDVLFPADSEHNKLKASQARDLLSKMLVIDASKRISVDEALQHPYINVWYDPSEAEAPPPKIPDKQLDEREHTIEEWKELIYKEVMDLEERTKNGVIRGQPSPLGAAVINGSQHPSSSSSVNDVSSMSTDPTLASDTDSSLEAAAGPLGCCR
Result: > 6.70

###

# Test system: c-jun phosphorylation in SH-SY5Y human neuroblastoma cell line
# method-notes: In Cell Western Assay, p-c-jun after TNFa
# Type: cell-based
# measurement-parameters: SH-SY5Y cells, 25 ng/ml TNFa 1 hour, printed as a numeric range, read-out: Phosphoryl. in SH-SY5Y
pIC50: −log10 of the molar value.
test-readout: pIC50

Problem: Name the reported pIC50 value associated with the compound CNC(=O)c1cc(-n2ncc3cc(Nc4ccccc4Cl)ncc32)cs1 [Compound 6]
Result: 7.00 to 8.00

###

# target-under-test: MINK1 (Homo sapiens)
# Sequence (Q8N4C8 whole entry): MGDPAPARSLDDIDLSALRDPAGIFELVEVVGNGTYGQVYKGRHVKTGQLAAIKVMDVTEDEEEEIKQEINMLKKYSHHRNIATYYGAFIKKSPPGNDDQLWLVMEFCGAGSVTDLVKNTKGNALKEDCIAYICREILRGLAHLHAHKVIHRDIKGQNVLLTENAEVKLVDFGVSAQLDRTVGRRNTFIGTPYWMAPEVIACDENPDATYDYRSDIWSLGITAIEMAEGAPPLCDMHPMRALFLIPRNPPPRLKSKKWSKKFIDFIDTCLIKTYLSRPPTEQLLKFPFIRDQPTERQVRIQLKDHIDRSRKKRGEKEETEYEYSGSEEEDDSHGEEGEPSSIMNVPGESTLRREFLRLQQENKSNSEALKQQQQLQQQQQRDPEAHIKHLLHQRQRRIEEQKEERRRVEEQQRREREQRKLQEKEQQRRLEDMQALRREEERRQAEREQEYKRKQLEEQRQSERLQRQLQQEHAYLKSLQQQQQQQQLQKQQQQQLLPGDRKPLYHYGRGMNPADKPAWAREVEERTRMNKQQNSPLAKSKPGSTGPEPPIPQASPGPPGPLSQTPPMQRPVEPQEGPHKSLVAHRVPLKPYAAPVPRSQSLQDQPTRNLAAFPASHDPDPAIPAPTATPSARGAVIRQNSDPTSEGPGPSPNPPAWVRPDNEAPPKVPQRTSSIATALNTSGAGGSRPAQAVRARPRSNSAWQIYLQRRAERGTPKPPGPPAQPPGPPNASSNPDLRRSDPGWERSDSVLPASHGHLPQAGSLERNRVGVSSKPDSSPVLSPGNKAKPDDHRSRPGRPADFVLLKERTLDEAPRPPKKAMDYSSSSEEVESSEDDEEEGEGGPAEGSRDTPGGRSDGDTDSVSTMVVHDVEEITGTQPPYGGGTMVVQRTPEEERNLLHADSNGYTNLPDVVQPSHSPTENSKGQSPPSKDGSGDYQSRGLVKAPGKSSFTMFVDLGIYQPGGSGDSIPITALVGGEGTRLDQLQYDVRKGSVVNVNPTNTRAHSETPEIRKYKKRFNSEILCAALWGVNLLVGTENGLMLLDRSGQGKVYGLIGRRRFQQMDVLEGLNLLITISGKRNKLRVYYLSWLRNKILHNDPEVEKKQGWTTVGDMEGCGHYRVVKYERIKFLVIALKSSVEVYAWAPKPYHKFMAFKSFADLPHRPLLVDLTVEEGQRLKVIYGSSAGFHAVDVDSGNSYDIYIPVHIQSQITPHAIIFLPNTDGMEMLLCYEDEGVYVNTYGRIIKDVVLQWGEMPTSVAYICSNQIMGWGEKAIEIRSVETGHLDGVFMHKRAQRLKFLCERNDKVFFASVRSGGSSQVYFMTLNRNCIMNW
test-readout: IC50

Some solved entries appear below for comparison.
| smiles-structure | IC50 |
| --- | --- |
| CN1CCN=C1NC(=O)c1cc(-n2ncc3nc(Nc4ccccc4Cl)ccc32)cs1 | < 200 nM |
| CNC(=O)c1cc(-n2ncc3cc(Nc4c(F)cccc4Cl)c(OC)cc32)cs1 | 200 to 1000 nM |
| CNC(=O)c1cc(-n2ncc3cc(Nc4cccc(C)c4Cl)ncc32)cs1 | < 200 nM |

Moving on to the next compound.
Problem: Lab request: please report IC50 under test system MINK1 (Homo sapiens) for CNC(=O)c1cc(-n2ncc3cc(Nc4c(Cl)cccc4OC)ncc32)cs1
Result: < 200 nM

###

# target-under-test: p38a (Homo sapiens, UniProt Q16539)
# Construct: purchased Reaction Biology Corp
# Sequence (Q16539 whole entry): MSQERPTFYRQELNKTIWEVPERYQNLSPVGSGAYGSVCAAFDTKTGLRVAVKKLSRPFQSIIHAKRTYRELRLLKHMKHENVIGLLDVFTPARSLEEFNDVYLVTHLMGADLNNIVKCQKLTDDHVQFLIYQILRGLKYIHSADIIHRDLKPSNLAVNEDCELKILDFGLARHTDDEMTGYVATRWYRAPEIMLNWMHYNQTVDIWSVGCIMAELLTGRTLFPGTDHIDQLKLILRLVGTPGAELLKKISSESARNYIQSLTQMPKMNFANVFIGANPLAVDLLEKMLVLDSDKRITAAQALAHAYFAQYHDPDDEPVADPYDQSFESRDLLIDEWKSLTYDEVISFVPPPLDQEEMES
# method-notes: HotSpot Kinase Assay, P38a
# Type: biochemical
# measurement-parameters: HotSpot radiometric assay, 33P-ATP
test-readout: IC50

Below are worked cases with known answers.
| molecule | reported-measurement |
| --- | --- |
| O=C(NC(CO)CO)c1cc(-n2ncc3nc(Nc4ccccc4Cl)ccc32)cs1 | > 1000 nM |
| CNC(=O)c1cc(-n2ncc3cc(Nc4c(F)cccc4Cl)c(OC)cc32)cs1 | 200 to 1000 nM |
| O=C(NC1CN(C2CC2)C1)c1cc(-n2ncc3cc(Oc4ccccc4Cl)ccc32)cs1 | 200 to 1000 nM |
| CC1COC(NC(=O)c2cc(-n3ncc4cc(Nc5ccccc5Cl)cnc43)cs2)=N1 (centres unmarked) | 200 to 1000 nM |

Now examine the next entry.
Problem: I would be grateful if you could share the reported IC50 for CNC(=O)c1cc(-n2ncc3cc(Nc4ccccc4Cl)c(C)nc32)cs1 .
Result: 200 to 1000 nM
